system: Salmonella typhimurium; assay: Genotoxicity in Salmonella typhimurium TA98 in presence of rat liver S9 fraction by Ames test; assay type: toxicity; conditions: salmonella enterica subsp. enterica serovar typhimurium
property.label: Activity

See these solved cases before continuing.
Would you mind telling me what Activity value was observed for Cc1cn2cc(NC(=O)c3ccc(N4CCNC(C)C4)cc3F)c(C)cc2n1 (centres undefined) ? Non-Toxic

Please give the result for `Cc1cn2cc(NC(=O)c3ccc(N4CCNCC4)cc3F)cc(F)c2n1` too. Toxic

Also, Cc1cn2cc(NC(=O)c3ccc(N4CCNC(C)C4)cc3F)nc2c(C)n1 (centres undefined) please. Toxic

Another compound to check: `Cc1nc2c(F)cc(NC(=O)c3ccc(N4CCNCC4)cc3F)cc2o1` Non-Toxic

Lookup `Cc1cn2cc(-c3cc4ccc(N5CCN(C)CC5)cc4c(=O)o3)nc2c(C)n1` Toxic

Next: `CCN1CCN(c2ccc3cc(-c4cn5cc(C)nc(C)c5n4)c(=O)oc3c2)C[C@@H]1C` Toxic

Follow-up item: `Cc1cn2cc(NC(=O)c3ccc(N4CCNCC4)cc3F)ncc2n1` Non-Toxic

Again, but for Cc1cn2nc(NC(=O)c3ccc(N4CCNC(C)C4)cc3F)nc2c(C)n1 (centres undefined) Non-Toxic

---
What measured Activity goes with `Cc1cn2cc(NC(=O)c3ccc(N4CCN(C)CC4)cc3)nc2c(C)n1` ? Non-Toxic

---

organism: Homo sapiens; assay: Modulation of patient derived full length SMN2 pre mRNA splicing assessed as restoration of functional SMN2 to protein level
The source made the active and inactive calls. The rule behind the calls is not given here.
property.label: EC1.5

Solved entries (count: 5):
Which EC1.5 value is on record for Cc1cn2cc(NC(=O)c3ccc(C4CCN(C)C4)cc3F)nc2c(C)n1 (stereo not given) ? 176 nM

Could you do the same for `Cc1cn2cc(N(C)C(=O)c3ccc(N4CCN(C)CC4)cc3)nc2c(C)n1` , please? inactive

Would you kindly repeat that for `Cc1cn2cc(NC(=O)c3ccc(C4CCNCC4)cc3)nc2c(C)n1` ? 3800 nM

Param item: `Cc1cn2cc(NC(=O)c3ccc(N4CCN(N5CCCC5)CC4)cc3F)nc2c(C)n1` 200 nM

// repeat for `COc1nc(N2CCNCC2)ccc1C(=O)Nc1cn2cc(C)nc2cn1` and report 555 nM

Turning now to a further record.
Reported EC1.5 for `Cc1cn2cc(CCc3ccc(N4CCNCC4)cc3)nc2c(C)n1` : what is it? inactive

---

experiment: Total AUC in neonatal wild type FVB mouse plasma at 3 mg/kg, ip qd for 10 days by LC-MS/MS analysis; assay type: ADME, organism-based; design: dose 3 mg/kg, route intraperitoneal, time AUCmax
AUC at 240 h: recorded values
Express it in ng·h/mL; write the number only.

I am curious: what AUC at 240 h value has been reported for `CC[C@@H]1CN(c2ccc(C(=O)Nc3cn4cc(C)nc4cn3)c(F)c2)CCN1` ? 3730

Others:
Could you share which AUC at 240 h value was measured for `CC[C@H]1CN(c2ccc(C(=O)Nc3cn4cc(C)nc4cn3)c(F)c2)CCN1` ? 4450

Follow-up entry: Cc1cn2cc(NC(=O)c3ccc(N4CCNC(C)C4)cc3F)nc2c(C)n1 (stereo not drawn) 3900

---

tested on: Salmonella typhimurium; assay: Genotoxicity in Salmonella typhimurium TA1535 in presence of rat liver S9 fraction by Ames test; assay type: toxicity; details: salmonella enterica subsp. enterica serovar typhimurium
property.label: Activity

Below, 8 compounds whose answers are already recorded.
Need Activity of `CCN1CCN(c2ccc3cc(-c4cn5cc(C)nc(C)c5n4)c(=O)oc3c2)C[C@@H]1C` , thanks. Toxic

What would you report for `Cc1cn2cc(-c3cc4ccc(N5CCN(C)CC5)cc4c(=O)o3)nc2c(C)n1` ? Toxic

Now consider `Cc1cn2cc(NC(=O)c3ccc(N4CCN(C)CC4)cc3)nc2c(C)n1` and answer again. Non-Toxic

Proceed to Cc1cn2cc(NC(=O)c3ccc(N4CCNC(C)C4)cc3F)nc2c(C)n1 (centres undefined) Toxic

Lookup Cc1cn2cc(NC(=O)c3ccc(N4CCNC(C)C4)cc3F)c(C)cc2n1 (centres undefined) Non-Toxic

Another compound to look at: `Cc1cn2cc(NC(=O)c3ccc(N4CCNCC4)cc3F)cc(F)c2n1` Toxic

Proceed to `Cc1nc2c(F)cc(NC(=O)c3ccc(N4CCNCC4)cc3F)cc2o1` Non-Toxic

Same question for `Cc1cn2cc(NC(=O)c3ccc(N4CCNCC4)cc3F)ncc2n1` please. Non-Toxic

--- query ---
GET /values?readout=Activity&item= Cc1cn2nc(NC(=O)c3ccc(N4CCNC(C)C4)cc3F)nc2c(C)n1 (centres undefined) Non-Toxic

---

test system: Salmonella typhimurium; assay: Genotoxicity in Salmonella typhimurium TA102 in presence of rat liver S9 fraction by Ames test; assay type: toxicity; settings: salmonella enterica subsp. enterica serovar typhimurium
property.label: Activity

# value lookup — system Salmonella typhimurium, readout Activity, item `CCN1CCN(c2ccc3cc(-c4cn5cc(C)nc(C)c5n4)c(=O)oc3c2)C[C@@H]1C` Toxic

Similarly, `Cc1cn2cc(NC(=O)c3ccc(N4CCNCC4)cc3F)ncc2n1` ? Non-Toxic

Param item: Cc1cn2cc(NC(=O)c3ccc(N4CCNC(C)C4)cc3F)c(C)cc2n1 (centres undefined) Non-Toxic

Next entry: `Cc1cn2cc(-c3cc4ccc(N5CCN(C)CC5)cc4c(=O)o3)nc2c(C)n1` Toxic

Try the molecule `Cc1nc2c(F)cc(NC(=O)c3ccc(N4CCNCC4)cc3F)cc2o1` Non-Toxic

For Cc1cn2nc(NC(=O)c3ccc(N4CCNC(C)C4)cc3F)nc2c(C)n1 (centres undefined) then? Non-Toxic

New cases:
Look up Activity with Salmonella typhimurium for this molecule: `Cc1cn2cc(NC(=O)c3ccc(N4CCNCC4)cc3F)cc(F)c2n1` Toxic

One more molecule: `Cc1cn2cc(NC(=O)c3ccc(N4CCN(C)CC4)cc3)nc2c(C)n1` Non-Toxic

Then what about the molecule Cc1cn2cc(NC(=O)c3ccc(N4CCNC(C)C4)cc3F)nc2c(C)n1 (centres undefined) ? Toxic

---

molecular target: Cytochrome P450 2D6 (Homo sapiens, UniProt P10635)
Sequence (P10635 whole entry): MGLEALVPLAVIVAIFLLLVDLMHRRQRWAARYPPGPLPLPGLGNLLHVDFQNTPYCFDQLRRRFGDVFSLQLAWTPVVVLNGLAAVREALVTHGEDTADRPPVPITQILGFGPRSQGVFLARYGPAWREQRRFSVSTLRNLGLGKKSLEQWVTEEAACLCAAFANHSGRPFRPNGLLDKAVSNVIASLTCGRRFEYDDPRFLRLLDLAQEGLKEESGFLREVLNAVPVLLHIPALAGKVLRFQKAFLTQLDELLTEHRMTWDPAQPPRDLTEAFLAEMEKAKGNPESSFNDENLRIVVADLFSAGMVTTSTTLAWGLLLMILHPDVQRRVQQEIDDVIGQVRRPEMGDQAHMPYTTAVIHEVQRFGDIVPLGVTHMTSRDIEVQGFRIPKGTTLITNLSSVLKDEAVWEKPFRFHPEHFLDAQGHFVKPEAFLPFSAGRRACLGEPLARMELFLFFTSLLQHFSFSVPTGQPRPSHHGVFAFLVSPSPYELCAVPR
pIC50: −log10 of the molar value.
property.label: pIC50

// returns reported pIC50 for input `Cc1cn2cc(NC(=O)c3ccc(N4CCN(C)CC4)cc3)nc2c(C)n1` < 4.30

---

organism: Homo sapiens; assay: Modulation of patient derived full length SMN2 pre mRNA splicing assessed as restoration of functional SMN2 to protein level
Activity calls are given as the source filed them. No cut-off for these calls is given here.
property.label: EC1.5

Which EC1.5 is reported for this compound? `Cc1cn2cc(C#Cc3ccc(N4CCN(C)CC4)cc3)nc2c(C)n1` inactive

Queued: `Cc1cn2cc(-c3ccc(NC(=O)C4CCN(C)CC4)cc3)nc2c(C)n1` inactive

Quick one: `Cc1cn2cc(-c3ccc(NC(=O)N4CCN(C)CC4)cc3)nc2c(C)n1` inactive

What about `Cc1cn2cc(NC(=O)c3ccc(N4CCNC(C)(C)C4)cc3F)ncc2n1` ? 504 nM

For Cc1cn2cc(NC(=O)c3ccc(N4CCNC(C)C4)cc3F)c(C)cc2n1 (stereo not given) then? 152 nM

Others:
Requested read-out: EC1.5. Entry: `Cc1nc2c(F)cc(NC(=O)c3ccc(N4CCNCC4)cc3F)cc2o1` 116 nM

Entry to check: `Cc1cn2cc(-c3ccc4c(c3)OC(=O)N(C3CCNCC3)C4)nc2c(C)n1` inactive

// repeat for Cc1cn2cc(NC(=O)c3ccc(N4CCNC(C)C4)cc3F)nc2c(C)n1 (stereo not given) and report 98 nM

One more compound: `Cc1cn2cc(NC(=O)c3ccc(N4CCN(C)CC4)cc3)nc2c(C)n1` 3950 nM

Try the compound `Cc1cn2cc(COc3ccc(N4CCNCC4)cc3)nc2c(C)n1` inactive

---

organism: Homo sapiens; experiment: Modulation of patient derived full length SMN2 pre mRNA splicing assessed as inclusion of exon 7
Active and inactive are the calls of the source. The calls are words filed in the database; no cut-off is given here.
property.label: EC1.5

In the examples that follow, each entry is paired with its recorded EC1.5.
Which EC1.5 value belongs to `CC[C@@H]1CN(c2ccc(C(=O)Nc3cn4cc(C)nc4cn3)c(F)c2)CCN1` ? 29 nM

Thanks! And `Cc1cn2cc(-c3ccc(NC(=O)N4CCN(C)CC4)cc3)nc2c(C)n1` ? inactive

Repeat for the following compound: `CC[C@H]1CN(c2ccc(C(=O)Nc3cn4cc(C)nc4cn3)c(F)c2)CCN1` 12 nM

Next record, please: `Cc1cn2cc(-c3ccc(C(=O)NC4CCN(C)CC4)cc3)nc2c(C)n1` inactive

How about `COc1nc(N2CCNCC2)ccc1C(=O)Nc1cn2cc(C)nc2cn1` ? 129 nM

What do you get for `Cc1cn2cc(NC(=O)c3ccc(N4CCN(C)CC4)cc3)nc2c(C)n1` ? 660 nM

***
Recorded EC1.5 for Cc1cn2cc(NC(=O)c3ccc(N4CCNC(C)C4)cc3F)c(C)cc2n1 (stereo unspecified) , please? 40 nM

// query: `Cc1cn2cc(NC(=O)c3ccc(N4CCNCC4)cc3F)ncc2n1` 37 nM

// next record `Cc1cn2cc(NC(=O)c3ccc(N4CCNCC4)cc3F)cc(F)c2n1` 11 nM
